assay.comment: Cytotoxicity against human HuH5.2 cells
Type: cell-based, Huh-5-2
Hi there, I'd appreciate the recorded CC50 for every entry that follows.

Qu. Please give the measured CC50 for this molecule: "O=c1ccn(Cc2cn(CP(=O)(O)O)nn2)c(=O)[nH]1"
Ans. 131 µM

Qu. Fill in: CC50 of "Cc1cn(Cc2cn(CP(=O)(O)O)nn2)c(=O)[nH]c1=O" is ___
Ans. > 300 µM

Qu. Request the reported CC50 associated with "Cc1cn(Cc2cn(CCP(=O)(O)O)nn2)c(=O)[nH]c1=O"
Ans. > 300 µM

Qu. # input molecule: "Nc1ncnc2c1ncn2Cc1cn(CCP(=O)(O)O)nn1" ; wanted: its CC50
Ans. 35 µM

Qu. Dear colleague, I am looking for the recorded CC50 of the following molecule: "Nc1ncnc2c1ncn2Cc1cn(CP(=O)(O)O)nn1"
Ans. > 300 µM

Qu. CC50 for "O=c1ccn(Cc2cn(CCP(=O)(O)O)nn2)c(=O)[nH]1" ?
Ans. > 300 µM
